- measurementNotes: small-molecule microarray binders of probe aWnt5a, primary screen, biochemical, biotinylated probe, 635/667 nm fluorescence (AID 1113);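 note: score merges 667 nm fluorescence intensity with signal-to-noise per printed feature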
- conditionsUsed: higher = more signal

| compound | composite z-score |
| --- | --- |
| CO[C@H]1O[C@H](CO)[C@@H](OC(=O)Nc2ccccc2)[C@H](OC(=O)Nc2ccccc2-c2ccccc2)[C@H]1OC(=O)Nc1ccccc1-c1ccccc1 | -0.0735 |
| CC(C)C(CO)N1C(=O)[C@@H]2C3C(=O)OCCC/C=C\[C@H]3OC23C=CCN(C(C)C)C(=O)[C@@H]13 (some centres not stated) | -0.221 |
| O=C(O)[C@H]1C[C@H]2C(=O)N[C@@H](Cc3ccccc3)C(=O)N2[C@H]1c1ccc(O)cc1 | -0.0678 |
| CCOC(=O)C[C@H]1[C@H](OC(=O)Cc2ccc3c(c2)OCO3)[C@@H](NC(=O)c2ccc3ccccc3c2)c2cc(OCCCO)ccc2N1C(=O)c1ccc2ccccc2n1 | -0.124 |
| Cc1ccc(S[C@]2(C(=O)NC3CC3)CC(=O)N(Cc3ccccc3C(F)(F)F)[C@@H]2c2ccc(CO)cc2I)cc1 | -0.124 |
| CO[C@H]1O[C@H](CO)[C@@H](OC(=O)CCc2ccccc2)[C@@H]2OC(=O)[C@H](Cc3ccccc3)C/C=C/C[C@@H](Cc3ccccc3)C(=O)O[C@@H]12 | -0.106 |
| CCOC(=O)C[C@H]1[C@H](OC(=O)c2ccc(-c3ccccc3)cc2)[C@@H](NC(=O)c2ccccc2)c2cc(OCCCO)ccc2N1C(=O)c1ccccc1 | -0.0718 |

---

Entries annotated with measured composite z-score
- measuredTarget: Epidermal growth factor receptor (Homo sapiens) (UniProt P00533)
- Sequence (P00533 whole entry, looked up): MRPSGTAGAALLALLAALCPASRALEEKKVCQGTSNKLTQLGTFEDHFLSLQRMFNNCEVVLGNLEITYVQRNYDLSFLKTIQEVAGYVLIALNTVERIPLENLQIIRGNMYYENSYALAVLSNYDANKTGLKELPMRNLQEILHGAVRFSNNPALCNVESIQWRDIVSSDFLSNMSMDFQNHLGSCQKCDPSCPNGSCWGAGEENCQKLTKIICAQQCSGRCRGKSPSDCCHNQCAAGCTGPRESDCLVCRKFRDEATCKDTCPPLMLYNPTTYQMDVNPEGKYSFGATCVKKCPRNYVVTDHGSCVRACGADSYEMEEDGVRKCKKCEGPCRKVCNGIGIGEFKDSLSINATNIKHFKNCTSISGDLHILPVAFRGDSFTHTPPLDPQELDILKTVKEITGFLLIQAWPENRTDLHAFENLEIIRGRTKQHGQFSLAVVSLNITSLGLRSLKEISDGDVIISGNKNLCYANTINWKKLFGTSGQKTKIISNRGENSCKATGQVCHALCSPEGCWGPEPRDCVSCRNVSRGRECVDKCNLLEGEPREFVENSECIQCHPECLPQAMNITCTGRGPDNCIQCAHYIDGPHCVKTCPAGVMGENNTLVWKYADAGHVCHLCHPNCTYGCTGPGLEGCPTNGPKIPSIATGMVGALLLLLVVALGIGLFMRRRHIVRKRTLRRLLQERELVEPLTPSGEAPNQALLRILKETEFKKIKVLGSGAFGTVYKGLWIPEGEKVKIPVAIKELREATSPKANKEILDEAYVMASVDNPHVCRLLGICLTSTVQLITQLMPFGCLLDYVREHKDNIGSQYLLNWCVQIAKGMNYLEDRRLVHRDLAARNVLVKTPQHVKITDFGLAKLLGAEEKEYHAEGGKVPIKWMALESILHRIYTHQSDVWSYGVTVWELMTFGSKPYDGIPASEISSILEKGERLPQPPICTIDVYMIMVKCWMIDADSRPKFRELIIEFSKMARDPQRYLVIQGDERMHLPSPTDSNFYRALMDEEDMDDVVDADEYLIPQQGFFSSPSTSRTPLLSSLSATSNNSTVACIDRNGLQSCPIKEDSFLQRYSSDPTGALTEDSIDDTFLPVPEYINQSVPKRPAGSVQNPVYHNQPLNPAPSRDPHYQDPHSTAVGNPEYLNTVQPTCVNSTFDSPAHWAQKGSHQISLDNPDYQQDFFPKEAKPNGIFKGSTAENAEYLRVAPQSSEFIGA
- measurementNotes: EGFR binders on small-molecule microarrays, primary screen, biochemical, small-molecule microarray, 635 nm fluorescence (AID 1104);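 note: score merges 667 nm emission intensity with spot signal to noise over triplicate slides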
- conditionsUsed: EGFR binding, higher = more signal

| molecule | composite z-score |
| --- | --- |
| Cc1ccc(S[C@]2(C(=O)NC3CC3)CC(=O)N(Cc3ccccc3C(F)(F)F)[C@@H]2c2ccc(CO)cc2I)cc1 | -0.385 |
| Cc1ccc(S[C@]2(C(=O)NCC(C)C)CC(=O)N(C(C)C)[C@@H]2c2ccc(CO)cc2)cc1 | -0.33 |
| O=C(O)[C@H]1C[C@H]2C(=O)NCC(=O)N2[C@H]1c1cccc(OCCO)c1 | 0.0343 |
| COc1ccc([Si](C)(C)[C@@H]2[C@@H](CCn3cc(CCO)nn3)O[C@]3(C(=O)N(Cc4ccc(N5C(=O)c6cccc7cccc5c67)cc4)c4ccccc43)[C@H]2C)cc1 | 0.248 |
| COCCCNC(=O)[C@@]1(Cc2ccccc2)N=C(c2ccc(OCCCO)cc2)O[C@H]1c1ccccc1N=[N+]=[N-] | -0.176 |
| C=C1C=C(Br)C2(OCCCO2)[C@H]2OC12 (stereo partly drawn) | 0.442 |
| O=C1O[C@@H](c2ccccc2)[C@@H](c2ccccc2)N2[C@@H](c3ccc(OCCO)cc3)[C@]3(C(=O)Nc4ccc(C#CC5(O)CCCCCC5)cc43)[C@@H](C(=O)NC[C@H](O)c3ccccc3)[C@H]12 | 0.244 |
| C/C=C/[C@@H](CCn1cc(CCO[Si](C(C)C)(C(C)C)C(C)C)nn1)[Si](C)(C)c1ccc(OC)cc1 | -2.01 |

---

- measurementNotes: small-molecule binders of probe aInhba, primary screen, biochemical, small-molecule microarray, 635/667 nm fluorescence (AID 1148);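 note: score merges 667nm spot fluorescence with signal-to-noise for antibody binding to printed compounds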
- conditionsUsed: higher = more signal
Entries annotated with measured composite z-score
measuredQuantity: composite z-score

| compound | valueReported |
| --- | --- |
| C=C1C=C(Br)C2(OCCCO2)[C@H]2OC12 (some centres not stated) | -0.128 |
| COC(=O)[C@@]1(CCC(=O)OC(C)(C)C)COC(c2ccc(OCCCO)cc2)=N1 | -0.109 |
| C=C(COC)C(=O)CC[C@H](OC(=O)c1ccccc1-c1ccccc1C(=O)O)c1ccccc1OCCO | -0.0021 |
| C[C@@H](OCc1ccccc1)C1NC(=O)[C@@]23C(=O)N[C@@H](Cc4ccccc4)C2[C@H](C)[C@@]2(C)O[C@H]2C3/C=C/C/C=C\CNC(=O)[C@@H]2CCCN2C1=O (some centres not stated) | -0.192 |
| C=CCC(OC(C)=O)[C@@H]1[C@@H](N(Cc2cccc3ccccc23)C(=O)c2cccc3ccccc23)c2cc(OCCCO)ccc2N1C(=O)Cc1ccc(OC)cc1 (some centres not stated) | -0.179 |
| CO[C@H]1O[C@H](CO)[C@@H](OC(=O)Nc2ccccc2)[C@H](OC(=O)Nc2ccccc2-c2ccccc2)[C@@H]1OC(=O)Nc1ccccc1-c1ccccc1 | 0.329 |
| CC(C)C[C@@H]1NC(=O)[C@H]2C[C@@H](C(=O)NCCCC[N+](C)(C)C)[C@@H](c3cccc(OCCO)c3)N2C1=O | -0.1 |

---

- measurementNotes: anti-His antibody binders, primary screen, artefact control for SMM control protein annotation, biochemical, small-molecule microarray, 635 nm fluorescence (AID 1128);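 note: score merges feature fluorescence with signal-to-noise for each printed compound spot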
- conditionsUsed: anti-His Alexa647 antibody binding, higher = more signal
Entry flag: MET if composite z-score reaches 0.5; NOT MET if it does not.

| molSmiles | labelClass |
| --- | --- |
| CC(C)[Si](C#C[Si](C(C)C)(C(C)C)C(C)C)(O[C@H](C)c1cn([C@H](C)c2ccccc2)nn1)C(C)C | NOT MET |
| COCCCNC(=O)[C@@]1(Cc2ccccc2CN=[N+]=[N-])COC(c2ccc(OCCCO)cc2)=N1 | MET |
| [N-]=[N+]=NCc1ccccc1C[C@@]1(C(=O)NCc2ccccc2)N=C(c2ccc(OCCCO)cc2)O[C@@H]1c1ccccc1 | MET |
| COc1ccc([Si](C)(C)[C@@H]2[C@@H](CCn3cc(CCO)nn3)O[C@]3(C(=O)N(Cc4ccc(N5C(=O)c6cccc7cccc5c67)cc4)c4ccccc43)[C@H]2C)cc1 | MET |
| COC(=O)c1c(CC[C@@H](CO)NC(=O)Nc2ccc(OC)cc2)oc(C(=O)Cc2ccccc2)c1C(=O)OC | NOT MET |
| C=CCNC(=O)[C@@H]1[C@H]2C(=O)O[C@H](c3ccccc3)[C@H](c3ccccc3)N2[C@H](c2ccc(O)cc2)[C@@]12C(=O)N(C(=O)OCCOC)c1ccc(C#Cc3ccc(OC)cc3)cc12 | MET |
| CC(C)(C)OC(=O)CC[C@@]12N=C(c3ccc(OCCCO)cc3)O[C@@H]1c1ccccc1CN(Cc1ccccc1)C2=O | MET |
| COc1ccc(C#Cc2ccc3c(c2)[C@]2(C(=O)N3)[C@H](c3ccc(O)cc3)N3[C@H](c4ccccc4)[C@H](c4ccccc4)OC(=O)[C@H]3[C@@H]2C(=O)N2CCN(c3ncccn3)CC2)cc1 | MET |
| CN(C)CCCC[C@@H]1NC(=O)[C@@H]2C[C@H](C(=O)NCCCCCNC(=O)CS)[C@H](c3cccc(OCCO)c3)N2C1=O | MET |
| COCCCN1C(=O)[C@@]2(Cc3ccccc31)c1ccccc1C(=O)N(Cc1ccccc1Cl)[C@H]2c1ccc(CO)cc1 | NOT MET |
| COc1c(C)cc(-c2cc3c(c(CCc4ccccc4)n2)[Si](C(C)C)(C(C)C)OC3)cc1C | NOT MET |
| COC(=O)c1c2oc(c1C(=O)OC)C(=O)N[C@@H](C(C)C)Cn1nncc1C1(CCCCC1)NC(=O)N[C@H](CO)CC2 | NOT MET |
| C=C(COC)C(=O)CC[C@@H](OC(=O)c1ccccc1-c1ccccc1C(=O)O)c1cccc(OCCO)c1 | NOT MET |
| CC(C)N1C(=O)c2ccccc2[C@@H](C(=O)NCc2ccccc2)[C@@H]1c1ccc(CO)cc1 | NOT MET |

---

- measurementNotes: HepG2 liver cancer cell viability effects, profiling panel, resazurin fluorescence, 24 h, PK04 Diversity Set (AID 1172); note: test concentration not given here
- conditionsUsed: higher = more signal
# z-score binned as bin A (below 0.5), bin B (0.5 to below 0.9), bin C (0.9 or more)

| molecule | labelClass |
| --- | --- |
| C=CC[C@@]1(C(=O)NCc2ccccc2)N=C(c2ccc(OCCCO)cc2)O[C@@H]1c1ccccc1 | bin B |
| C#CCOc1ccc(C[C@H]2C(=O)O[C@H](Cc3ccccc3)[C@H](/C=C/C3CC3)N2CC#C)cc1 | bin C |
| C=C(COC)/C(=C/C[C@H](OC(C)=O)c1ccc(CO)o1)c1cnc2ccccc2c1 | bin A |
| CO[C@H]1O[C@H](CO)[C@@H](OC(=O)CCc2ccccc2)[C@@H]2OC(=O)[C@H](Cc3ccccc3)C/C=C/C[C@@H](Cc3ccccc3)C(=O)O[C@@H]12 | bin C |
| CCCCC(=C=CC[C@H](O)c1cccc(OCCO)c1)CCO | bin B |
| C=C(COC)/C(=C/C[C@H](OC(C)=O)c1cccc(OCCO)c1)c1cc(C(=O)OC)ccc1OC | bin A |
| COCCCNC(=O)[C@@]1(Cc2ccccc2CN=[N+]=[N-])COC(c2ccc(OCCCO)cc2)=N1 | bin C |
| COC(=O)C1=CC(c2ccc(CO)cc2)=CC(C2CC2)N(C)C=C1C(=O)OC (configuration not stated) | bin B |
| COC(=O)[C@@]1(CCC(=O)OC(C)(C)C)COC(c2ccc(OCCCO)cc2)=N1 | bin B |
| COc1c(C)cc(-c2cc3c(c(CCc4ccccc4)n2)[Si](C(C)C)(C(C)C)OC3)cc1C | bin C |
| C[C@@H](OCc1ccccc1)C1NC(=O)[C@@]23C(=O)N[C@@H](Cc4ccccc4)C2[C@H](C)[C@@]2(C)O[C@H]2C3/C=C/C/C=C\CNC(=O)[C@@H]2CCCN2C1=O (some centres not stated) | bin A |
| COC(=O)c1c2oc(c1C(=O)OC)C(=O)N[C@@H](C(C)C)Cn1nncc1C1(CCCCC1)NC(=O)N[C@H](CO)CC2 | bin C |
| CC(C)(C)OC(=O)CC[C@@]1(C(=O)N2CCOCC2)N=C(c2ccc(OCCCO)cc2)O[C@@H]1c1ccccc1 | bin C |
| C=CC[C@]1(C(=O)N2CCCCC2)COC(c2ccc(OCCCO)cc2)=N1 | bin C |
| CC(C)N1CC=CC23O[C@@H]4/C=C\CCCOC(=O)C4[C@H]2C(=O)N(CCCO)[C@@H]3C1=O (some centres not stated) | bin A |
| CC(C)C(=C=CC[C@H](O)c1ccc(OCCO)cc1)C[C@H](O)COCc1ccccc1 | bin B |
| O=C1c2ccccc2[C@](Cc2ccccc2I)(C(=O)O)[C@H](c2ccc(CO)cc2)N1Cc1ccccc1Cl | bin B |
| CC(=O)OC(C/C=C\B1OC(C)(C)C(C)(C)O1)c1ccccc1 (configuration not stated) | bin B |
| CC1CC/C=C\[C@H]2OC34C=CCN(C(C)C)C(=O)[C@H]3N(C(CO)C(C)C)C(=O)[C@@H]4C2C(=O)O1 (some centres not stated) | bin B |
| COC(=O)C(CC#Cc1ccc2c(c1)[C@]1(C(=O)N2)[C@H](C(N)=O)[C@H]2C(=O)O[C@H](c3ccccc3)[C@H](c3ccccc3)N2[C@@H]1c1ccc(O)cc1)C(=O)OC | bin A |
| C=CCNC(=O)[C@@H]1[C@H]2C(=O)O[C@H](c3ccccc3)[C@H](c3ccccc3)N2[C@H](c2ccc(O)cc2)[C@@]12C(=O)Nc1ccccc12 | bin A |
| CC(C)[C@@H](C(=O)O)n1cc(-c2ccccn2)nn1 | bin B |
| O=C(NC1CC1)[C@@H]1c2ccccc2C(=O)N(Cc2ccccc2C(F)(F)F)[C@H]1c1ccc(CO)cc1 | bin A |
| O=C1c2ccccc2C(=O)c2cc([C@H]3Oc4ccccc4S(=O)(=O)N4CCC[C@@H]34)ccc21 | bin C |
| C=CCN1C(=O)[C@@]2(O[C@@H](CCn3cc(CCO)nn3)[C@H]([Si](C)(C)c3ccc(OC)cc3)[C@H]2C)c2cc(NC(=O)c3ccc(OC)cc3)ccc21 | bin A |
| O=C(NCc1ccccc1)[C@@H]1c2ccccc2C(=O)N(Cc2ccccc2Cl)[C@H]1c1ccc(CO)cc1 | bin B |
| CC(C)(C)OC(=O)CC[C@@]12N=C(c3ccc(OCCCO)cc3)O[C@@H]1c1ccccc1CN(Cc1ccccc1)C2=O | bin A |
| C/C=C/[C@@H](CCn1cc(CCO[Si](C(C)C)(C(C)C)C(C)C)nn1)[Si](C)(C)c1ccc(OC)cc1 | bin C |
| CCCCC(=C=CC[C@@H](O)c1ccc(OCCO)cc1)C[C@@H](O)c1cc(Cl)cc(Cl)c1O | bin C |
| COC(=O)c1c(CC[C@@H](CO)NC(=O)Nc2ccc(OC)cc2)oc(C(=O)Cc2ccccc2)c1C(=O)OC | bin A |
